Test description: antivirals against arbovirus infection, primary screen, cell-based, full library, 10K replicate subset (AID 1251)
Run parameters: arbovirus infection cell-based antiviral screen, at 10 µM, stronger effect = higher value
Hit rate of the full screen: of about 200,000 compounds, about 720 (0.36%) were called active. The sample holds actives, similar compounds and a random draw of the others, so the mix is not that of the screen.
Measurement name: inhibition (%)

INSERT INTO assay_data (compound, unit_descriptor, result_value) VALUES
  ('COc1ccc(C)cc1NC(=O)c1ccc(-c2ccc(C(C)=O)cc2)o1', '%', -5.64),
  ('c1ccc(CSc2nnc(-c3ccco3)c(-c3ccco3)n2)cc1', '%', 13.1),
  ('C/C(CCc1ccccc1)=N\NC(=O)c1ccc(CN2CCOCC2)cc1', '%', -3.19),
  ('CC(CC(=O)O)C(=O)c1ccc(Cl)c([N+](=O)[O-])c1 (centres undefined)', '%', 5.76),
  ('COCC(C)NCc1cc(Br)ccc1OC (centres undefined)', '%', 5.99),
  ('COc1ccc(CCNC(=O)/C(C#N)=C2\N=C(NC(=O)c3cccs3)c3ccccc32)cc1', '%', 1.79),
  ('Cc1nc(Nc2ccc(S(=O)(=O)N3CCCC3)cc2)c2nnn(Cc3ccccc3)c2n1', '%', -12.5),
  ('CCOC(=O)c1ccccc1N1C(=O)C2Sc3[nH]c(=O)sc3C(/C=C/c3ccccc3)C2C1=O (centres undefined)', '%', -0.3),
  ('O=C(COC(=O)C12CC3CC(CC(O)(C3)C1)C2)NC12CC3CC(CC(C3)C1)C2', '%', 5.43),
  ('O=C(COC(=O)c1ccccc1F)Nc1cc(S(=O)(=O)N2CCOCC2)ccc1N1CCCC1', '%', 3.02),
  ('COCCn1c(C)cc(C(=O)CSc2nc3ccccc3c(=O)n2C(C)COC)c1C (centres undefined)', '%', 8.78),
  ('CCC(=O)N1CCN=C1SCc1ccc(F)cc1', '%', -3.24),
  ('CC(C)(C)C(=O)NCCCNc1ccc([N+](=O)[O-])cc1', '%', 1.95),
  ('N#Cc1c(NC(=O)C2CC(Cl)=CCC2C(=O)O)sc2c1CCCCC2 (centres undefined)', '%', 31.9),
  ('Cc1ccc(NC(=O)c2ccccn2)cc1S(=O)(=O)N1CCOCC1', '%', 20),
  ('CC(=O)n1cc([C@@H]2C=C(C(=O)N3CCN(Cc4ccc5c(c4)OCO5)CC3)O[C@H](OCc3ccc(CO)cc3)C2)c2ccccc21', '%', -8.36),
  ('COc1ccc(N2C(=O)C(CC(=O)Nc3ccccc3)N(Cc3ccc(OC)c(OC)c3)C2=O)cc1 (centres undefined)', '%', 0.98),
  ('Cc1ccc(N2C(=O)C(CC(=O)Nc3cccc(F)c3)N(CCc3ccncc3)C2=O)cc1 (centres undefined)', '%', 7.79),
  ('CC1(C)CC(=O)CC2(C1)NCC(c1ccccc1Cl)c1c2[nH]c2ccccc12 (centres undefined)', '%', -27.8),
  ('CCN(CC)CCNC(=O)c1ccc(NC(=O)c2c(F)cccc2Cl)cc1', '%', -4.69),
  ('CCOC(=O)N1CCN(C(=O)Cn2cnc3ccccc3c2=O)CC1', '%', 4.88),
  ('N#Cc1c(NC(=O)C2CCCO2)sc2c1CCCCC2 (centres undefined)', '%', 6.23),
  ('COc1ccccc1N1CCN(Cc2ccc(OC)c3ccccc23)CC1', '%', 31.9),
  ('CNCC(O)CN1CCN(c2ccccc2OC)CC1 (centres undefined)', '%', 3.01),
  ('COc1ccccc1N1CCN(CCCCOc2ccc(F)cc2)CC1', '%', 13.4),
  ('CCNC(=S)N1CCN(c2ncccn2)CC1', '%', -0.7),
  ('Cc1ccccc1CSc1nnc(-c2ccccc2)c(=O)[nH]1', '%', 1.96),
  ('COc1cccc(CNn2cn[nH]c2=S)c1OCc1ccccc1', '%', -1.17),
  ('Cc1ccc(C2=C/C(=C\c3cccnc3)C(=O)O2)cc1', '%', -1.53),
  ('CC(=O)Nc1ccc(NC(=S)NC(=O)c2ccc([N+](=O)[O-])c(C)c2)cc1', '%', -7.89),
  ('Cc1nc(Nc2ccc3c(c2)OCCO3)c2nnn(Cc3ccccc3Cl)c2n1', '%', 51.5),
  ('CN(C)NC(=O)C(NC(=O)c1ccc(N)cc1)C12CC3CC(CC(C3)C1)C2 (centres undefined)', '%', 5.7),
  ('O=C(CSc1ncn[nH]1)NCc1ccc2c(c1)OCO2', '%', 2.87),
  ('C=Cn1c(C(=O)O)ccc1-c1ccc(OC)cc1', '%', -6.55),
  ('CCCCCC(=O)NC(=S)NNC(=O)c1ccc([N+](=O)[O-])cc1', '%', -18),
  ('S=c1[nH]nc(/C=C/c2ccccc2)o1', '%', -0.67),
  ('CCN(c1ccc(NC(=O)COC(=O)CCc2nc3ccccc3n2-c2ccccc2)cc1)C(C)C', '%', -15.1),
  ('O=c1[nH]c(SCc2ccccc2)nnc1-c1ccccc1', '%', 33.1),
  ('CN(C)c1ccc(C(CC(=O)O)C(=O)O)cc1 (centres undefined)', '%', 2.46),
  ('COc1ccc(C)cc1NC(=O)C(OC(=O)c1cccc(S(=O)(=O)N(C)c2ccccc2)c1)c1ccccc1 (centres undefined)', '%', 2.04),
  ('CN1CCN(S(=O)(=O)c2cccc(C(=O)O)c2)CC1', '%', -0.22),
  ('COc1ccc(Nc2nc(NCc3ccco3)nc(N/N=C/c3ccccc3Cl)n2)cc1', '%', -9.8),
  ('NC(=O)CC[C@@H]1NC(=O)[C@@H]2CCCN2C(=O)c2cc([N+](=O)[O-])cc(F)c2NCCC[C@@H](C(N)=O)NC1=O', '%', 8.77),
  ('N#Cc1c(NC(=O)CCCl)sc2c1CCCCC2', '%', -2.94);

Values compiled from PubChem BioAssay AID1251.
